Entry source: ChEMBL document CHEMBL1152470

# System: Klebsiella sp.
# Procedure Text: Antimicrobial activity against Klebsiella sp. by CLSI broth microdilution method
# Assay type: functional
Result Type: MIC50 (µg/mL)
One number for each entry, in µg/mL.

Solved cases (3 shown):
1. C[C@@H](O)[C@H]1C(=O)N2C(C(=O)O)=C(SCCNC=N)C[C@H]12 [IMIPENEM ANHYDROUS]; 8
2. CN(C)[C@@H]1C(O)=C(C(N)=O)C(=O)[C@@]2(O)C(O)=C3C(=O)c4c(O)cccc4[C@@](C)(O)[C@H]3C[C@@H]12 [TETRACYCLINE]; 4
3. NCC[C@H](O)C(=O)N[C@@H]1C[C@H](N)[C@@H](O[C@H]2O[C@H](CN)[C@@H](O)[C@H](O)[C@H]2O)[C@H](O)[C@H]1O[C@H]1O[C@H](CO)[C@@H](O)[C@H](N)[C@H]1O [AMIKACIN]; 16

We next turn to a different molecule, shown below.
Query block: Could you tell me which MIC50 is on file for CN(C)c1cc(NC(=O)CNC(C)(C)C)c(O)c2c1C[C@H]1C[C@H]3[C@H](N(C)C)C(O)=C(C(N)=O)C(=O)[C@@]3(O)C(O)=C1C2=O [TIGECYCLINE] ?
Result block: 1
